Values were extracted from patent US7452887B2.

biological target: AKT3 (Homo sapiens, UniProt Q9Y243); assay: HTS ATP-utilizing enzyme assay, off-chip mobility-shift (Caliper HTS 250); assay type: biochemical; details: test compound 10 μM, kinase listed = active (greater than six-sigma from the mean activity of inactive compounds)
Sequence (Q9Y243 whole entry): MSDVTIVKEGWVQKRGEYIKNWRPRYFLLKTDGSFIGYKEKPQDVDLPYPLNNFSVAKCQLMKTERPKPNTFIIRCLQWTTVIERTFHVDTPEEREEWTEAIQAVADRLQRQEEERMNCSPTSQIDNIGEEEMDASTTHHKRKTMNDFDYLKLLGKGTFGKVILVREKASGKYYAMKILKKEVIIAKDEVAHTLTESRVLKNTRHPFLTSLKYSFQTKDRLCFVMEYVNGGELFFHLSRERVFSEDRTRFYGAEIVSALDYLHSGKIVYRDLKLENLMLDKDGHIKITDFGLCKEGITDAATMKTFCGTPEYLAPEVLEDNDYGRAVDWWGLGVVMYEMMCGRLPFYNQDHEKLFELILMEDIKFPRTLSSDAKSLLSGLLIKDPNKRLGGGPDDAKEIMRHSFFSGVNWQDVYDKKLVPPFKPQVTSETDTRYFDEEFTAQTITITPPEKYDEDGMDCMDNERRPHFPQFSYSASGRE
Value Type: Activity

Sample Smiles: CN1CCN(c2ccc(Nc3ccnc4ccc(-c5cccc([N+](=O)[O-])c5)cc34)cc2)CC1
Target Entity: AKT3 (Homo sapiens, UniProt Q9Y243)
Value Observed: AKT3

Sample Smiles: Cc1ccc(C)c(-c2ccc3nccc(Nc4ccc(N5CCN(C)CC5)cc4)c3c2)c1
Target Entity: AKT3 (Homo sapiens, UniProt Q9Y243)
Value Observed: AKT3

Sample Smiles: CN1CCN(c2ccc(Nc3ccnc4ccc(-c5cccc6ccccc56)cc34)cc2)CC1
Target Entity: AKT3 (Homo sapiens, UniProt Q9Y243)
Value Observed: AKT3

Sample Smiles: CN1CCN(c2ccc(Nc3ccnc4ccc(-c5ccncc5)cc34)cc2)CC1
Target Entity: AKT3 (Homo sapiens, UniProt Q9Y243)
Value Observed: AKT3

Sample Smiles: CN1CCN(c2ccc(Nc3ccnc4ccc(-c5cccc(C#N)c5)cc34)cc2)CC1
Target Entity: AKT3 (Homo sapiens, UniProt Q9Y243)
Value Observed: AKT3

Sample Smiles: CN1CCN(c2ccc(Nc3ccnc4ccc(-c5cccc(O)c5)cc34)cc2)CC1
Target Entity: AKT3 (Homo sapiens, UniProt Q9Y243)
Value Observed: AKT3

Sample Smiles: CN1CCN(c2ccc(Nc3ccnc4ccc(-c5cccnc5)cc34)cc2)CC1
Target Entity: AKT3 (Homo sapiens, UniProt Q9Y243)
Value Observed: AKT3
